molecular target: Neuronal acetylcholine receptor; alpha3/beta4 (Homo sapiens, UniProt P30926+P32297); assay: Displacement of [3H]Epibatidine from human alpha3beta4 nACHR expressed in CHO cell membranes after 2 hrs by liquid scintillation counting analysis
Sequence (P30926 whole entry): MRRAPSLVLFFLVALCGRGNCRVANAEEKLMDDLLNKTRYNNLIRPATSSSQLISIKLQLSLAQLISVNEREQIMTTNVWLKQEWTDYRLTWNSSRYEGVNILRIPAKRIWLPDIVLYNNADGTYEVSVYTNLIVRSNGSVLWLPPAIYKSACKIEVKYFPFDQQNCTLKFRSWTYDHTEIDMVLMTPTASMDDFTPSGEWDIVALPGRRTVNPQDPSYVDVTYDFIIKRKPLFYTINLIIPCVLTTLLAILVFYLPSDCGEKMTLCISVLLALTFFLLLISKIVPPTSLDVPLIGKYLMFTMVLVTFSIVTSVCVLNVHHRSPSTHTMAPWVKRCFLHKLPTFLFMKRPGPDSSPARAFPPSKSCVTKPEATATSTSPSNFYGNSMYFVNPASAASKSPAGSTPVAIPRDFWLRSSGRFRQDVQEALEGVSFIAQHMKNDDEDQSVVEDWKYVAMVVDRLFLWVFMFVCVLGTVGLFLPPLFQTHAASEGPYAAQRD
Sequence (P32297 whole entry): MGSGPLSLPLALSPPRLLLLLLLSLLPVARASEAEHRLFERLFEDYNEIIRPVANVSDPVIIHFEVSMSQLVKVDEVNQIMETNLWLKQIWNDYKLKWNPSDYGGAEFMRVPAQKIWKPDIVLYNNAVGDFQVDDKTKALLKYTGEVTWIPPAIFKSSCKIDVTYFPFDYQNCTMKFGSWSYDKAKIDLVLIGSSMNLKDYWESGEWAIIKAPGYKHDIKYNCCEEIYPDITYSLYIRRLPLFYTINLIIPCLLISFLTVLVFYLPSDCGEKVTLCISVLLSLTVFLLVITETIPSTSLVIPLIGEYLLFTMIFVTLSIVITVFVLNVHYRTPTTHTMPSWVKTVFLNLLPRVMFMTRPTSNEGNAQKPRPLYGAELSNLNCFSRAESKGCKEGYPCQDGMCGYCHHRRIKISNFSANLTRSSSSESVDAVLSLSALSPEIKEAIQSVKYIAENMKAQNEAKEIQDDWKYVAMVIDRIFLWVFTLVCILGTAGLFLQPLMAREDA
Task for the reader: assign each of the following molecules its reported pKi.
The scale used: pKi is minus the common logarithm of the concentration in molar units.

Fill in: pKi on Neuronal acetylcholine receptor; alpha3/beta4 (Homo sapiens, UniProt P30926+P32297), entry O=C([C@H]1C[C@@H]1F)N1CC2CNCC2C1 (mixture of isomers)
6.09

Report measured pKi on Neuronal acetylcholine receptor; alpha3/beta4 (Homo sapiens, UniProt P30926+P32297); entry: O=C([C@@H]1C[C@@H]1F)N1CC2CNCC(C2)C1 (mixture of isomers)
5.92

Send back Neuronal acetylcholine receptor; alpha3/beta4 (Homo sapiens, UniProt P30926+P32297) pKi of O=C([C@@H]1C[C@@H]1F)N1CC2CNCC2C1 (mixture of isomers) only.
6.07
